# target_or_test_system: DNA topoisomerase 1 (Homo sapiens) (UniProt P11387)
# Sequence (P11387 whole entry): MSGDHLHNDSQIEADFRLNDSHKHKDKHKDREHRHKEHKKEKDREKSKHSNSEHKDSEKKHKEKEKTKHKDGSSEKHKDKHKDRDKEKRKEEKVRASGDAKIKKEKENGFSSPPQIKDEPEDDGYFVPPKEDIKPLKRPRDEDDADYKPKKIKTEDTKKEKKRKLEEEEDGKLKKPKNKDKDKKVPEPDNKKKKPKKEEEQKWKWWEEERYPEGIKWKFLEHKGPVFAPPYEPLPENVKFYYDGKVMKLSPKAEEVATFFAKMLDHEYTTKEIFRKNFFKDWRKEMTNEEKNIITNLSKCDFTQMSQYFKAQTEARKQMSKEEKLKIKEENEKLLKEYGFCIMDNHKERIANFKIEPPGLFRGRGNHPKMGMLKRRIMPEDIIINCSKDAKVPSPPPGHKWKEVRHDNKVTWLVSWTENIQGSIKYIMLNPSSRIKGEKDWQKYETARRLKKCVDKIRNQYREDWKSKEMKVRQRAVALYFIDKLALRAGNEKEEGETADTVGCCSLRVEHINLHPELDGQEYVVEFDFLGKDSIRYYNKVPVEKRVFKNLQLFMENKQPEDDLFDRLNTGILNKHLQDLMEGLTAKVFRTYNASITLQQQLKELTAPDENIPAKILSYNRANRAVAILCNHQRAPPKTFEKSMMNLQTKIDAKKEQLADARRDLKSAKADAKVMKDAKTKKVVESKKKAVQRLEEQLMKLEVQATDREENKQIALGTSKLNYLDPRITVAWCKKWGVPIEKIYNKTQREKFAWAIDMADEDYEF
# test_protocol: Inhibition of human recombinant Top1 expressed in baculovirus-infected insect Sf9 cells using 3'-[32P]-end-labeled 117 bp DNA as substrate assessed as inhibition of DNA cleavage after 20 mins by PAGE analysis relative to 1 uM camptothecin
Activity calls are given as the source filed them. The calls are words filed in the database; no cut-off is given here.
metric: inhibition

O=C1c2ccc(O)cc2-c2c1c1ccc([N+](=O)[O-])cc1c(=O)n2CCCN1CCOCC1: Active
O=C1c2c(O)cccc2-c2c1c1ccc([N+](=O)[O-])cc1c(=O)n2CCCN1CCOCC1: 50%
O=C1c2cccc(O)c2-c2c1c1ccc([N+](=O)[O-])cc1c(=O)n2CCCn1ccnc1: 75%
COc1cc2c(cc1O)-c1c(c3ccc([N+](=O)[O-])cc3c(=O)n1CCCn1ccnc1)C2=O: 50%
COc1cc2c(cc1O)C(=O)c1c-2n(CCCn2ccnc2)c(=O)c2cc([N+](=O)[O-])ccc12: 20%

Quick batch: inhibition for everything below.
1. COc1cc2c(cc1O)-c1c(c3ccc([N+](=O)[O-])cc3c(=O)n1CCCN)C2=O
2. NCCCn1c2c(c3ccc([N+](=O)[O-])cc3c1=O)C(=O)c1cc(O)ccc1-2
3. O=C1c2c(O)cccc2-c2c1c1ccc([N+](=O)[O-])cc1c(=O)n2CCCn1ccnc1
4. COc1cc2c(cc1O)C(=O)c1c-2n(CCCN)c(=O)c2cc([N+](=O)[O-])ccc12

1. 50%
2. Active
3. 75%
4. 50%
